Test system: Fibroblast
Assay: Multiplex assay against human fibroblast
Type: toxicity, cell-based
Settings: 24 h, 1 µM, compound concentration 1 uM, replicate 1
Value kind: Population Normal (%)
State the answer as a number, implicitly in %.

The examples below pair each entry with its known result.
Compound	Value kind	Units text	Observed measurement
COc1cc(C(=O)N(CCCc2ccccc2)Cc2ccc(CC(=O)O)cc2)cc(OC)c1C	Population Normal (%)	%	98
O=C1COc2nccc(-c3ccccc3F)c2CN1Cc1cc(C(F)(F)F)cc(C(F)(F)F)c1	Population Normal (%)	%	96
COc1c(C)cc(NC(=O)c2nn(Cc3ccc(F)cc3)c3c2CN(C(=O)c2ccc[nH]2)C[C@]3(C)C(N)=O)cc1C	Population Normal (%)	%	96
CCCC(CCC)C(=O)O [VALPROIC ACID]	Population Normal (%)	%	95
CSc1ccccc1N1CCN(CCCCCC(=O)NC2CCCc3ccccc32)CC1.Cl (centres undefined)	Population Normal (%)	%	93

[ask] Fill in: Population Normal (%) of COc1ccc2c(c1)C(C(=O)N(Cc1ccc(N(C)C)cc1)c1ccc(C(C)C)cc1)CCC2.Cl (centres undefined) is ___
[reply] 98

[ask] Fill in: Population Normal (%) of C[C@H](NC(=O)c1c(C(F)F)nn(C)c1Oc1cccc(C(F)(F)F)c1)c1ccc(C(=O)O)cc1 [PALUPIPRANT] is ___
[reply] 94

[ask] Fill in: Population Normal (%) of CC(=O)NCCc1c(Cc2ccccc2)[nH]c2ccccc12 [LUZINDOLE] is ___
[reply] 99

[ask] Fill in: Population Normal (%) of CC(C)(C)c1ccc(S(=O)(=O)Nc2ccc(Cl)cc2C(=O)c2cc[n+]([O-])cc2)cc1 [VERCIRNON] is ___
[reply] 99
